Protocol description: Kinetic solubility (nephelometry)
Assay type: physicochemical
Condition summary: aqueous buffer, kinetic from dmso stock; PBS pH 7.4, 1% DMSO, 1 hour at 37° C., light scattering at 625 nm
Lab note: anything with solubility kinetic at 1 h at or over 4 µM counts as yes (1); the rest go in no (0).

* CCC(c1ccc(C(F)(F)F)cc1C(F)(F)F)n1cc(NC(=O)c2cc(-c3ccccn3)on2)cn1 (stereo not shown) [Compound 1] | no (0)
* CC(c1ccc(C(F)(F)F)cc1C(F)(F)F)n1cc(NC(=O)c2nnc(-c3cnccn3)s2)cn1 (stereo not shown) [Compound 136] | no (0)
* C[C@H](c1ccc(C(F)(F)F)cc1C(F)(F)F)n1cc(NC(=O)c2cc(-c3ccccn3)no2)cn1 [Compound 76] | yes (1)
* CC(c1ccc(C(F)(F)F)cc1C(F)(F)F)n1cc(NC(=O)c2cc(-c3ccco3)on2)cn1 (single isomer, unassigned) [“Enantiomer A” of Example S6] | yes (1)
* C[C@H](c1ccc(C(F)(F)F)cc1C(F)(F)F)n1cc(NC(=O)c2cn(-c3ccccn3)nn2)cn1 [Compound 121] | no (0)
* Cc1nn([C@H](C)c2ccc(C(F)(F)F)cc2C(F)(F)F)cc1NC(=O)c1cc(-c2ccccn2)on1 [Compound 99] | no (0)
* O=C(Nc1cnn(C2CCc3ccccc32)c1)c1cc(-c2ccco2)on1 (stereo not shown) [Compound 19] | yes (1)

====

System name: CYP2B6 (Homo sapiens (Human))
Sequence (P20813 whole entry): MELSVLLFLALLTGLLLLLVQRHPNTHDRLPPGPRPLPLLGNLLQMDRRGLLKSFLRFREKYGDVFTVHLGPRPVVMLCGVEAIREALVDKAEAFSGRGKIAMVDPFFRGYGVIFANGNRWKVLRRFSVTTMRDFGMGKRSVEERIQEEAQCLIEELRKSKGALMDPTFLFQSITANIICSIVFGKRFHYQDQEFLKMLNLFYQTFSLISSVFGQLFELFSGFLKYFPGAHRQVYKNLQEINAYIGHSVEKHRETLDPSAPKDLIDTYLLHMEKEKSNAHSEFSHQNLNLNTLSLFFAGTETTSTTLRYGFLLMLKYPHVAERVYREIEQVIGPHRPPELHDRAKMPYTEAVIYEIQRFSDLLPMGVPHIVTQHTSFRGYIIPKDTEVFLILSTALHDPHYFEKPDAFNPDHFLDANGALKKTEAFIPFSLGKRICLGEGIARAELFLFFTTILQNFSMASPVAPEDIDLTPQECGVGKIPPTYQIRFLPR
Protocol description: CYP inhibition in human liver microsomes
Condition summary: microsomes
Quantity kind: IC50 (µM)

• O=C(Nc1cnn(Cc2ccc(C(F)(F)F)cc2C(F)(F)F)c1)c1cc(-c2ccco2)on1 [Ceapin-A7, reference compound] = 7.48

====

Measured Rem. @ mLM (%) accompanies every entry in the list below.
Protocol description: In vitro microsomal stability, mouse liver microsomes
Type: in vitro ADME
Condition summary: remaining fraction after 30 min; 1 μM compound, 0.5 mg/mL mouse liver microsomes, 1 mM NADPH
Quantity kind: Rem. @ mLM (%)

- Cc1ccc(-c2cc(C(=O)Nc3cnn(Cc4ccc(C(F)(F)F)cc4C(F)(F)F)c3)no2)o1: 3.3%
- Cc1nn([C@@H](C)c2ccc(C(F)(F)F)cc2C(F)(F)F)cc1NC(=O)c1cc(-c2ccccn2)on1: 34.3%
- O=C(Nc1cnn(Cc2ccc(C(F)(F)F)cc2C(F)(F)F)c1)c1cc(-c2ccccn2)on1: 40.8%
- C[C@H](c1ccc(F)cc1C(F)(F)F)n1cc(NC(=O)c2cc(-c3ccccn3)on2)cn1: 20.03%
- CC(c1ccc(C(F)(F)F)cc1C(F)(F)F)n1cc(NC(=O)c2cc(-c3ccccn3)on2)cn1 (single isomer, unassigned) [“Enantiomer A” of Example S5]: 53.8%
- CC(c1ccc(C(F)(F)F)cc1C(F)(F)F)n1cc(NC(=O)c2cc(-c3ccco3)on2)cn1 (centres unmarked) [Compound 12]: 1.02%
- CC(c1ccc(C(F)(F)F)cc1C(F)(F)F)n1cc(NC(=O)c2cc(-c3ccco3)on2)cn1 (single isomer, unassigned) [“Enantiomer A” of Example S6]: 3.05%
- CC(c1ccc(C(F)(F)F)cc1C(F)(F)F)n1cc(NC(=O)c2nnc(-c3cnccn3)s2)cn1 (centres unmarked): 78.7%
- CN(C(=O)c1cc(-c2ccccn2)on1)c1cnn(Cc2ccc(C(F)(F)F)cc2C(F)(F)F)c1: 0.94%
- C[C@H](c1ccc(C(F)(F)F)cc1C(F)(F)F)n1cc(NC(=O)c2cnc(-c3ccccn3)s2)cn1: 83.18%
- C[C@H](c1ccc(C(F)(F)F)cc1C(F)(F)F)n1cc(NC(=O)c2nnc(-c3ccccn3)s2)cn1: 89.7%
- CCC(c1ccc(C(F)(F)F)cc1C(F)(F)F)n1cc(NC(=O)c2cc(-c3ccccn3)on2)cn1 (centres unmarked): 54.8%
- C[C@H](c1ccc(C(F)(F)F)cc1C(F)(F)F)n1cc(NC(=O)c2nnc(-c3cnccn3)s2)cn1: 82.6%
- O=C(Nc1cnn(Cc2ccc(C(F)(F)F)cc2C(F)(F)F)c1)c1cc(-c2cccs2)on1: 5.62%

Data credit: patent US20240124434A1
